assay: stability of 4, 6 and 12 in human plasma at 37° C.
Type: in vitro ADME
protocol_conditions: human, plasma, human 2, citrate
Structures can show the parent of a compound that is named as a salt.
readout: half-life (min)
Numbers only, in min.

Query: Given the molecule C[C@H](N)C(=O)Nc1ccc2c(c1)CN1C(=O)c3ccccc3C1=N2 [Compound 4, N-l-alanyl-AQ-monohydrochloride] , what is its reported half-life?
Response: 30.7

---

Hi there, I'd appreciate the recorded half-life for every entry that follows.
assay: stability of 4, 6 or 12 in aqueous buffered solutions (μ = 0.15)
Type: physicochemical
protocol_conditions: phosphate buffer (0.05m), pH 7.4, Phosphate (0.05M), 37° C., pH 7.4, initial conc. 0.02 mg/ml
Structures can show the parent of a compound that is named as a salt.
One number for each entry, in h.

Take a look at these entries with their results.
[
  {
    "compound": "NCCCC[C@H](N)C(=O)Nc1ccc2c(c1)CN1C(=O)c3ccccc3C1=N2",
    "display_unit": "h",
    "half-life": 67.2
  },
  {
    "compound": "CC(C)C[C@H](N)C(=O)Nc1ccc2c(c1)CN1C(=O)c3ccccc3C1=N2",
    "display_unit": "h",
    "half-life": 80.6
  }
]

Alright, here's another compound for you.
Query: Given the compound C[C@H](N)C(=O)Nc1ccc2c(c1)CN1C(=O)c3ccccc3C1=N2 [Compound 4, N-l-alanyl-AQ-monohydrochloride] , what is its reported half-life?
Response: 158

---

assay: hydrolysis of 14 and 4a in human plasma at 37.0° C.
Type: in vitro ADME
protocol_conditions: human plasma (citrate), 2.0 mg of 14 in 200 μl water + 2 ml plasma, read-out: half life of hydrolysis of 14 to 4a
readout: half-life (min)
Answers are plain numbers, in min.

Query: Given the compound C[C@H](NC(=O)CN)C(=O)Nc1ccc2c(c1)CN1C(=O)c3ccccc3C1=N2 [Compound 14, L-Gly-Ala-derivative of AQ] , what is its reported half-life?
Response: 14

---

assay: stability of 4, 6 and 12 in human plasma at 37° C.
Assay type: in vitro ADME
protocol_conditions: human, plasma, citrate
Hi there, I'd appreciate the recorded half-life for every entry that follows.
Give bare numbers, in h.

[
  {
    "molecule_smiles": "CC(C)C[C@H](N)C(=O)Nc1ccc2c(c1)CN1C(=O)c3ccccc3C1=N2",
    "display_unit": "h",
    "readout_number": 2.02
  }
]

Alright, here's another compound for you.
Query: Given the compound `NCCCC[C@H](N)C(=O)Nc1ccc2c(c1)CN1C(=O)c3ccccc3C1=N2` , what is its reported half-life?
Response: 2.31

---

Hi there, I'd appreciate the recorded half-life for every entry that follows.
assay: stability of 4, 6 or 12 in aqueous buffered solutions (μ = 0.15)
Type: physicochemical
protocol_conditions: water, pH 5.9, Water, 25° C., initial conc. 0.1 mg/ml; pH 5.9 (4), 5.46 (6), 6.1 (12); estimated values (*)
One number for each entry, in days.

[
  {
    "molecule_smiles": "CC(C)C[C@H](N)C(=O)Nc1ccc2c(c1)CN1C(=O)c3ccccc3C1=N2",
    "display_unit": "days",
    "half-life": 47
  }
]

Alright, here's another molecule for you.
Query: Given the molecule `NCCCC[C@H](N)C(=O)Nc1ccc2c(c1)CN1C(=O)c3ccccc3C1=N2` , what is its reported half-life?
Response: 37
